Attribution: patent US6525001B1

System: cocklebur (Xanthium strumarium)
Assay: Test B pre-/postemergence
Assay type: in vivo
Settings: Rate 125 g/ha, Postemergence
Method: […] At the same time, these crop and weed species were also treated with postemergence applications of test chemicals formulated in the same manner. […] Treated plants and controls were maintained in a greenhouse for twelve to sixteen days, after which all species were compared to controls and visually evaluated. […]
endpoint label: Plant response rating, Cocklebur

Cc1cnc(-c2ccc(C(F)(F)F)cc2)nc1C(Cl)c1cccc(C(F)(F)F)c1 (racemic): 8
Cc1cnc(-c2cccc(C(F)(F)F)c2)nc1Cc1cccc(C(F)(F)F)c1: 9
Cc1cnc(-c2ccc(Cl)cc2)nc1Cc1cccc(C#N)c1: 6
Cc1cnc(-c2ccc(C(F)(F)F)cc2)nc1Cc1cccc(C(F)(F)F)c1: 8
Cc1cnc(-c2ccc(F)c(Cl)c2)nc1Cc1cccc(C(F)(F)F)c1: 9
Cc1cnc(-c2ccc(C(F)(F)F)cc2)nc1C(C#N)c1cccc(C(F)(F)F)c1 (racemic): 8
Cc1cnc(-c2ccc(OC(F)(F)F)cc2)nc1Cc1cccc(C(F)(F)F)c1: 4
Cc1cnc(-c2ccc(C(F)(F)F)cc2)nc1Cn1nc(C(F)(F)F)cc1C: 9
CCc1cnc(-n2cnc(C(F)(F)F)n2)nc1Cc1cccc(OC(F)(F)F)c1: 4
Cc1cnc(-c2ccc(F)cc2F)nc1Cc1cccc(C(F)(F)F)c1: 6
COc1cnc(-c2ccc(C(F)(F)F)cc2)nc1Cc1cccc(C(F)(F)F)c1: 10

---

Test system: momingglory (Ipomoea hederacea)
Assay: Test B pre-/postemergence
Type: in vivo
Conditions: Preemergence, Rate 62 g/ha; scale of 0 to 10
endpoint label: Plant response rating, Morningglory

Cc1cnc(-n2ccc(C(F)(F)F)n2)nc1C(=O)c1cccc(C(F)(F)F)c1: 6
Cc1cnc(-n2ccc(C(F)(F)F)n2)nc1C(=O)c1ccc(C(F)(F)F)cc1: 0
CCc1cnc(-n2ccc(C(F)(F)F)n2)nc1C(=O)c1cccc(C#N)c1: 2
Cc1cnc(-n2ccc(C(F)(F)C(F)(F)F)n2)nc1C(=O)c1cccc(C(F)(F)F)c1: 3
Cc1cnc(-n2ccc(C(F)(F)F)n2)nc1C(=O)c1cccc(OC(F)(F)F)c1: 2
CCc1cnc(-n2cnc(C(F)(F)F)c2)nc1C(=O)c1cccc(OC(F)(F)F)c1: 2
Cc1cnc(-n2cnc(C(F)(F)F)n2)nc1C(=O)c1cccc(C(F)(F)F)c1: 8
Cc1cnc(-c2ccc(C(F)(F)F)cc2)nc1Cn1cc(Br)cn1: 0

---

Test system: soybean (Glycine max)
Experiment: Test C
Type: in vivo
Parameters: key: 0 was no effect; 100 was complete control
Conditions: PREEMERGENCE, Rate 70 g/ha
Plant response rating, Soybean values by entry
endpoint label: Plant response rating, Soybean

Cc1cnc(-c2ccc(C(F)(F)F)cc2)nc1Cc1cccc(C(F)(F)F)c1 [Example 1]: 0
Cc1cnc(-c2ccc(C(F)(F)F)cc2)nc1C(Cl)c1cccc(C(F)(F)F)c1 (racemic) [Compound 21]: 0
CCc1cnc(-n2ccc(C(F)(F)F)n2)nc1Cc1cccc(C(F)(F)F)c1 [Compound 46]: 0
Cc1cnc(-n2ccc(C(F)(F)F)n2)nc1Cc1cccc(C(F)(F)F)c1 [Example 2]: 0
Cc1cnc(-n2ccc(C(F)(F)F)n2)nc1Cn1ccc(C(F)(F)F)n1 [Compound 52]: 55
Cc1cnc(-n2cnc(C(F)(F)F)n2)nc1Cc1cccc(C(F)(F)F)c1 [Compound 43]: 5

---

System: cocklebur (Xanthium strumarium)
Assay: Test B pre-/postemergence
Type: in vivo
Parameters: key: 0 is no effect; 10 is complete control
Conditions: Rate 500 g/ha, Preemergence
Plant response rating, Cocklebur values by entry
endpoint label: Plant response rating, Cocklebur

Cc1cnc(-n2ccc(C(F)(F)F)n2)nc1Cn1ccc(C(F)(F)F)n1: 10
Cc1cnc(-n2ccc(C(F)(F)F)n2)nc1C(=O)c1cccc(C(F)(F)F)c1: 2
Cc1cnc(-c2ccc(C(F)(F)F)cc2)nc1C(=O)c1cccc(OC(F)(F)F)c1: 9
Cc1cnc(-c2ccc(C(F)(F)F)cc2)nc1C(=O)c1ccc(C(F)(F)F)cc1: 0
Cc1cnc(-c2ccc(C(F)(F)F)cc2)nc1Cn1cc(I)cn1: 3
Cc1cnc(-c2ccc(C(F)(F)F)cc2)nc1Cn1ccc(C(F)(F)F)n1: 9
Cc1cnc(-n2ccc(C(F)(F)F)n2)nc1C(=O)c1cccc(OC(F)(F)F)c1: 3
Cc1cnc(-c2ccc(C(F)(F)F)cc2)nc1Cn1nc(C(F)(F)F)cc1C: 7
Cc1cnc(-n2cnc(C(F)(F)F)n2)nc1C(=O)c1cccc(OC(F)(F)F)c1: 7
Cc1cnc(-n2ccc(C(F)(F)C(F)(F)F)n2)nc1C(=O)c1cccc(C(F)(F)F)c1: 8

---

System: cocklebur (Xanthium strumarium)
Experiment: Test B pre-/postemergence
Format: in vivo
Conditions: Rate 500 g/ha, Postemergence
endpoint label: Plant response rating, Cocklebur

Cc1cnc(-n2cnc(C(F)(F)F)c2)nc1C(=O)c1cccc(C(F)(F)F)c1: 8
Cc1cnc(-n2ccc(C(F)(F)F)n2)nc1Cn1ccc(C(F)(F)F)n1: 9
Cc1cnc(-c2ccc(C(F)(F)F)cc2)nc1Cn1nc(C(F)(F)F)cc1C: 9
Cc1cnc(-c2ccc(C(F)(F)F)cc2)nc1Cn1cnc(C(F)(F)F)n1: 9
Cc1cnc(-n2ccc(C(F)(F)F)n2)nc1C(=O)c1cccc(OC(F)(F)F)c1: 5
Cc1cnc(-c2ccc(C(F)(F)F)cc2)nc1Cn1ccc(C#N)n1: 6
Cc1cnc(-c2ccc(C(F)(F)F)cc2)nc1Cn1cc(Br)cn1: 9

---

Tested on: soybean (Glycine max)
Assay: Test B pre-/postemergence
Format: in vivo
Conditions: Rate 500 g/ha, Postemergence
Hi! Just check whether Plant response rating, Soybean is below 7. Below gives fulfilled, equal or above gives not fulfilled.

Cc1cnc(-c2ccc(C(F)(F)F)cc2)nc1Cc1cccc(C(F)(F)F)c1 [Example 1]: not fulfilled
Cc1cnc(-c2ccc(Cl)cc2)nc1Cn1ccc(C(F)(F)F)n1 [Compound 6]: fulfilled
Cc1cnc(-n2ccc(C(F)(F)F)n2)nc1Cn1ccc(C(F)(F)F)n1 [Compound 52]: not fulfilled
Cc1cnc(-c2ccc(C(F)(F)F)cc2)nc1Cn1ccc(C(F)(F)C(F)(F)F)n1 [Compound 14]: fulfilled
Cc1cnc(-c2ccc(C(F)(F)F)cc2)nc1Cn1ccc(C(F)(F)F)n1 [compound 9]: not fulfilled
Cc1cnc(-c2ccc(C(F)(F)F)cc2)nc1Cn1nc(C(F)(F)F)cc1C [Compound 13]: fulfilled
Cc1cnc(-n2cnc(C(F)(F)F)c2)nc1C(=O)c1cccc(OC(F)(F)F)c1 [Compound 63]: fulfilled
Cc1cnc(-c2ccc(C(F)(F)F)cc2)nc1Cn1cc(I)cn1 [Compound 12]: fulfilled

---

System: corn (Zea mays)
Assay: Test B pre-/postemergence
Type: in vivo
Conditions: Rate 250 g/ha, Preemergence
Procedure: […] At the same time, these crop and weed species were also treated with postemergence applications of test chemicals formulated in the same manner. […] Treated plants and controls were maintained in a greenhouse for twelve to sixteen days, after which all species were compared to controls and visually evaluated. […]
endpoint label: Plant response rating, Corn

CCc1cnc(-n2ccc(C(F)(F)F)n2)nc1C(=O)c1cccc(C#N)c1: 5
COc1cnc(-n2ccc(C(F)(F)F)n2)nc1C(=O)c1cccc(C(F)(F)F)c1: 0
Cc1cnc(-c2ccc(C(F)(F)F)cc2)nc1C(Cl)c1cccc(C(F)(F)F)c1 (racemic): 1
O=C(c1cccc(C(F)(F)F)c1)c1ccnc(-c2ccc(C(F)(F)F)cc2)n1: 0

---

System: bamyardgrass (Echinochloa crus-galli)
Assay: Test B flood test
Assay type: in vivo
Parameters: key: 0 is no effect; 10 is complete control
Conditions: Rate 62 g/ha, Postemergence (flood test)
endpoint label: Plant response rating, Barnyardgrass

Cc1cnc(-c2ccc(Cl)cc2)nc1Cn1ccc(C(F)(F)F)n1: 0
COC(c1cccc(C(F)(F)F)c1)c1nc(-c2ccc(C(F)(F)F)cc2)ncc1C (racemic): 0
Cc1cnc(-c2ccc(C(F)(F)F)cc2)nc1Cn1nc(C(F)(F)F)cc1C: 2
Cc1cnc(-c2ccc(C(F)(F)F)cc2)nc1Cn1cc(I)cn1: 2
Cc1cnc(-n2cnc(C(F)(F)F)n2)nc1Cn1ccc(C(F)(F)F)n1: 5
CCc1cnc(-n2ccc(C(F)(F)F)n2)nc1Cc1cccc(C(F)(F)F)c1: 2
Cc1cnc(-c2ccc(Cl)c(Cl)c2)nc1Cc1cccc(C(F)(F)F)c1: 1

---

Test system: giant foxtail (Setaria faberii)
Test: Test B pre-/postemergence
Format: in vivo
Design: key: 0 is no effect; 10 is complete control
Details: Rate 250 g/ha, Preemergence
endpoint label: Plant response rating, Giant foxtail

O=C(c1cccc(C(F)(F)F)c1)c1ccnc(-c2ccc(F)cc2F)n1 [Compound 76]: 0
Cc1cnc(-c2cccc(C(F)(F)F)c2)nc1Cc1cccc(C(F)(F)F)c1 [Compound 24]: 6
CCc1cnc(-n2ccc(C(F)(F)F)n2)nc1C(=O)c1cccc(C#N)c1 [Compound 72]: 7
COc1cnc(-c2ccc(C(F)(F)F)cc2)nc1Cc1cccc(C(F)(F)F)c1 [Compound 23]: 10
Cc1cnc(-n2ccc(C(F)(F)F)n2)nc1Cn1ccc(C(F)(F)F)n1 [Compound 52]: 10
Cc1cnc(-n2cnc(C(F)(F)F)n2)nc1C(=O)c1cccc(C(F)(F)F)c1 [Compound 67]: 10
Cc1cnc(-c2ccc(C(F)(F)F)cc2)nc1Cn1cc(I)cn1 [Compound 12]: 9
Cc1cnc(-c2ccc(C(F)(F)F)cc2)nc1Cn1ccc(C#N)n1 [Compound 53]: 6
Cc1cnc(-n2cnc(C(F)(F)F)n2)nc1C(=O)c1cccc(OC(F)(F)F)c1 [Compound 64]: 5
Cc1cnc(-c2ccc(C(F)(F)F)cc2)nc1Cn1nc(C(F)(F)F)cc1C [Compound 13]: 10
Cc1cnc(-c2ccc(C(F)(F)F)cc2)nc1Cn1ccc(C(F)(F)C(F)(F)F)n1 [Compound 14]: 7
Cc1cnc(-n2cnc(C(F)(F)F)c2)nc1C(=O)c1cccc(OC(F)(F)F)c1 [Compound 63]: 6
Cc1cnc(-c2ccc(C(F)(F)F)cc2)nc1C(=O)c1ccc(C(F)(F)F)cc1 [Compound 74]: 0
Cc1cnc(-c2ccc(OC(F)(F)F)cc2)nc1Cc1cccc(C(F)(F)F)c1 [Compound 16]: 7
